Each item that follows carries a reported inhibition at 0.1 µM.
- ASSAYED_TARGET: binding between NRF2 and KEAP1 (biotinylated human KEAP1 protein (Kelch domain), TAMRA-labeled NRF2 peptide) (Homo sapiens, UniProt Q14145)
- Construct: biotinylated human KEAP1 protein (Kelch domain); biotin (biotinylated)
- Sequence (Q14145 321-609 limits assumed): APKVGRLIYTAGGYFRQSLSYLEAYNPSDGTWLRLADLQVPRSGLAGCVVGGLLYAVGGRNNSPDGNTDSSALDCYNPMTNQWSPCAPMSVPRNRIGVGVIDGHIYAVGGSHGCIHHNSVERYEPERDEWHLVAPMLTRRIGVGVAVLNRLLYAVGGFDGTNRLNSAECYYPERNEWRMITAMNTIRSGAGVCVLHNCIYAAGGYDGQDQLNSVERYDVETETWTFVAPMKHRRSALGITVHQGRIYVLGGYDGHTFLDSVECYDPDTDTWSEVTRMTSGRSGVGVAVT
- ASSAY_REMARKS: Measurement of activity of inhibiting NRF2 binding (NRF2-KEAP1 TR-FRET)
- TEST_PARAMETERS: inhibition rate relative to control at 100 nM test compound; TR-FRET; 60 min at room temperature; read-out: NRF2 binding inhibitory activity (at 100 nM)
Write down the numeric answer in % and omit the unit.

# annotated cases, reported inhibition at 0.1 µM shown
Documented inhibition at 0.1 µM of Cc1c2ccc3c1nnn3CCCCOc1cc(Cl)c(c(Cl)c1)C(=O)N1CCc3ccc(cc3C1)C2C(C)(C)C(=O)O (stereo not shown) [Example 65] : 100

Recorded result, Cc1c2ccc3c1nnn3CCCOCc1cc(Cl)c(c(Cl)c1)C(=O)N1CCc3ccc(cc3C1)C2C(C)(C)C(=O)O (stereo not shown) [Example 60] , inhibition at 0.1 µM: 100

New cases:
Cc1oc(=O)oc1COC(=O)CC1c2ccc3c(c2)CN(CC3)C(=O)c2ccc(cc2)CCCCCn2nnc3c(C)c1ccc32 (stereo not shown) [Example 35] yielded inhibition at 0.1 µM of 99

Short answer for CCc1cc2ccc1C(=O)N1CCc3ccc(cc3C1)C(CC(=O)O)c1ccc3c(nnn3CCCOC2)c1C (racemic) [Example 18] : inhibition at 0.1 µM was 100

Reported inhibition at 0.1 µM ( Cc1c2ccc3c1nnn3CCCCOc1ccc(c3c1OC(C)(C)C3)C(=O)N1CCc3ccc(cc3C1)C2CC(=O)O (racemic) [Example 33] ) = 100

Form field inhibition at 0.1 µM, entry CCOC(=O)CC1c2ccc3c(c2)CN(CC3)C(=O)c2ccc(cc2)CCCCCn2nnc3c(C)c1ccc32 (stereo not shown) [Example 37] : 29

Recorded inhibition at 0.1 µM (compound Cc1c2ccc3c1nnn3CCCCCc1ccc(c3c1OC(C)(C)C3)C(=O)N1CCc3ccc(cc3C1)C2CC(=O)O (racemic) [Example 5] ): 100

###

- ASSAYED_TARGET: binding between NRF2 and KEAP1 (biotinylated human KEAP1 protein (Kelch domain), TAMRA-labeled NRF2 peptide) (Homo sapiens, UniProt Q14145)
- Construct: biotinylated human KEAP1 protein (Kelch domain); biotin (biotinylated)
- ASSAY_REMARKS: Measurement of activity of inhibiting NRF2 binding (NRF2-KEAP1 TR-FRET)
- TEST_PARAMETERS: inhibition rate relative to control at 100 nM test compound; TR-FRET; 60 min at room temperature; read-out: NRF2 binding inhibitory activity (at 100 nM)
PROPERTY_LABEL: inhibition at 0.1 µM (%)
All answers are understood in %, so give the number only.

The molecule Cc1c2ccc3c1nnn3CCCOCc1ccc(cc1)C(=O)N1CCc3ccc(cc3C1)C2C(C)(C)C(=O)O (racemic) [Example 28] showed inhibition at 0.1 µM equal to 100

GET /value?item= Cc1c2ccc3c1nnn3CCCCCc1ccc(c3c1OCC3)C(=O)N1CCc3ccc(cc3C1)C2CC(=O)O (racemic) [Example 4] &field=inhibition at 0.1 µM returns 100

Field inhibition at 0.1 µM (entry Cc1c2ccc3c1nnn3CCCCCc1ccc(c3c1CC(C)(C)O3)C(=O)N1CCc3ccc(cc3C1)C2CC(=O)O (racemic) [Example 8] ) reads 100

For this molecule ( Cc1c2ccc3c1nnn3CCCCCc1ccc(c3c1CCO3)C(=O)N1CCc3ccc(cc3C1)C2CC(=O)O (racemic) [Example 7] ), measured inhibition at 0.1 µM is 100

Measured inhibition at 0.1 µM, Cc1ccc(NC(=O)CC2c3ccc4c(c3)CN(CC4)C(=O)c3ccc(cc3)CCCCCn3nnc4c(C)c2ccc43)cn1 (stereo not shown) [Example 38] : 79

// inhibition at 0.1 µM lookup, molecule = Cc1cc2ccc1C(=O)N1CCc3ccc(cc3C1)C(CC(=O)O)c1ccc3c(nnn3CCCOC2)c1C (racemic) [Example 17] , result: 100

Here's the next entry for you.
The molecule listed as Cc1c2ccc3c1nnn3CCCOCc1ccc(c(OC(F)(F)F)c1)C(=O)N1CCc3ccc(cc3C1)C2CC(=O)O (racemic) [Example 20] has a reported inhibition at 0.1 µM of 100

Origin of the recorded values: patent US11518763B2
